- experimental-target: T1, 3-pHis peptide (Biotin-AminocaproicAcid-A.G.A.G.H.A.G.A.G phosphorylated by phosphoramidate)
- T1 construct: His-peptide, phosphorylated on His5; the phosphoramidate reaction gives a mixture of non-phosphorylated, 1-pHis, 3-pHis and di-pHis peptide; also called Biotinylated ACLYana-3-pHis; ACLYana-pHis; source: synthetic peptide, phosphorylated with potassium phosphoramidate; not shown: biotin, N-terminal, kept
- T1 peptide: {Biotin-Ahx}-AGAG[3‑pHis]AGAG
- test-description: BLI; Octet RED96e; biotinylated peptides captured on streptavidin biosensors at 20 nM; Fab in solution, 20-200 nM; 1x HBS-T, 1% BSA
Below is a list of entries, each paired with its recorded kon value.

# binder, kon
rows = [
    ("rSC44 Fab (Fab, V domains shown) VH: QSVKESGRGLVQPGGSLTLTCTASGFSIDSYGFSWVRQAPGKGLEHIGYLTAGGRAFYASWAKSRSTITRNTNENTVTLKMTSLTAADTATYFCAKLGSGNPVAIWGPGTLVTVSS VL: QVLTQTPSFTSAAVGGTVTINCQSSQSVWRNKNLAWYQQKPGQPPKRLIYAIATLDSGVPSRFSGSGSGTQFTLTISDVQCDDAATYYCVGHYGSENDAYYAFGGGTEVVVK", "122000 M⁻¹ s⁻¹"),
    ("hSC44.20.N32F^L Fab (Fab, V domains shown) VH: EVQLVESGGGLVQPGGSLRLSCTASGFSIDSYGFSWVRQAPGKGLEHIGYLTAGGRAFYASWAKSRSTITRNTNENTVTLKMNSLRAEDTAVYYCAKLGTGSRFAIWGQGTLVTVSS VL: DIQMTQSPSSLSASVGDRVTITCRASQSVWRNKFVAWYQQKPGKAPKRLIYAIASLYSGVPSRFSGSGSGTDFTLTISSLQPEDFATYYCVGHYGSENDAYYAFGQGTKVEIK", "105000 M⁻¹ s⁻¹"),
    ("hSC44.20 Fab (Fab, V domains shown) VH: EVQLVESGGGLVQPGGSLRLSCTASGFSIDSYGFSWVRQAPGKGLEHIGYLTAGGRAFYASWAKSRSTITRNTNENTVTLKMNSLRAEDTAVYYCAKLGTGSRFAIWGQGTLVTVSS VL: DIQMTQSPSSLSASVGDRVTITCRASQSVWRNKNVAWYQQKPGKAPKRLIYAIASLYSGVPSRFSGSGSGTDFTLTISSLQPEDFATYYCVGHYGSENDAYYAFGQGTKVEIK", "240000 M⁻¹ s⁻¹"),
]
